Target: Jak2 (human Jak2 kinase domain, amino acids 808-1132) (Homo sapiens (Human))
Assay: Jak2 inhibition assay (Omnia kinase assay)
Type: biochemical
Settings: read-out: Jak2 Enzyme (% inhibition at 1000 nM), Table 1; 1000 nM test compound
METRIC_NAME: inhibition at 1 µM (%)

The cases that follow already have their inhibition at 1 µM on record.
INSERT INTO measurements (smiles_string, quantitative_result) VALUES
  ('O=C(N[C@H]1CC[C@H](O)C1)c1cnn2ccc(N3CCC[C@@H]3c3cncc(F)c3)nc12', 18.7),
  ('CC1(NC(=O)c2cnn3ccc(N4CCC[C@@H]4c4cncc(F)c4)nc23)CCC1', 17.3);

P = NC(=O)c1cnn2ccc(N3CCC[C@@H]3c3cncc(F)c3)nc12
Q = Cn1ccc(NC(=O)c2cnn3ccc(N4CCC[C@@H]4c4cc(F)ccc4F)nc23)n1
Of the pair P and Q , name the member with the lesser recorded inhibition at 1 µM. # reply format: chosen label P

###

Target: Jak2 (human Jak2 kinase domain, amino acids 808-1132) (Homo sapiens (Human))
Test: Jak2 inhibition assay (Omnia kinase assay)
Assay type: biochemical
Details: read-out: Jak2 Enzyme (% inhibition at 1000 nM), Table 1; 1000 nM test compound
METRIC_NAME: inhibition at 1 µM (%)

# count of solved cases: 8
INSERT INTO results (compound, metric_name, quantitative_result) VALUES
  ('COc1ccc(F)cc1[C@H]1CCCN1c1ccn2ncc(C(=O)NC[C@H](O)CO)c2n1 [Example 55]', 'inhibition at 1 µM', 24.1),
  ('CC1(C)OCC(COc2cc(F)cc([C@H]3CCCN3c3ccn4ncc(C(=O)NC5CC5)c4n3)c2)O1 (some centres unmarked) [Example 206]', 'inhibition at 1 µM', 12.6),
  ('COc1ncc(F)cc1[C@H]1CCCN1c1ccn2ncc(C(=O)NCCO)c2n1 [Example 155]', 'inhibition at 1 µM', 33.3),
  ('O=C(N[C@@H]1CCC[C@H]1O)c1cnn2ccc(N3CCC[C@@H]3c3cncc(F)c3)nc12 [Example 133]', 'inhibition at 1 µM', 14.4),
  ('COc1ncc(F)cc1[C@H]1CCCN1c1ccn2ncc(C(=O)NC3CCN(CCO)CC3)c2n1 [Example 159]', 'inhibition at 1 µM', 28.9),
  ('COc1ncc(F)cc1[C@H]1CCCN1c1ccn2ncc(C(=O)NCC(O)CO)c2n1 (some centres unmarked) [Example 149]', 'inhibition at 1 µM', 10.2),
  ('C[C@H](O)CNC(=O)c1cnn2ccc(N3CCC[C@@H]3c3cc(F)ccc3F)nc12 [Example 166]', 'inhibition at 1 µM', 13.8),
  ('CC(C)(CN1CCOCC1)NC(=O)c1cnn2ccc(N3CCC[C@@H]3c3cc(F)ccc3F)nc12 [Example 9]', 'inhibition at 1 µM', 4.6);

P = O=C(Nc1ccccn1)c1cnn2ccc(N3CCC[C@@H]3c3cc(F)ccc3F)nc12 [Example 2]
Q = O=C(NC1(CO)CC1)c1cnn2ccc(N3CCC[C@@H]3c3cncc(F)c3)nc12 [Example 107]
Please tell me which of the two, P or Q , has the higher reported inhibition at 1 µM value. Pick one; state its label. P

###

Biological target: Jak2 (human Jak2 kinase domain, amino acids 808-1132) (Homo sapiens (Human), UniProt O60674)
Sequence (O60674 808-1132): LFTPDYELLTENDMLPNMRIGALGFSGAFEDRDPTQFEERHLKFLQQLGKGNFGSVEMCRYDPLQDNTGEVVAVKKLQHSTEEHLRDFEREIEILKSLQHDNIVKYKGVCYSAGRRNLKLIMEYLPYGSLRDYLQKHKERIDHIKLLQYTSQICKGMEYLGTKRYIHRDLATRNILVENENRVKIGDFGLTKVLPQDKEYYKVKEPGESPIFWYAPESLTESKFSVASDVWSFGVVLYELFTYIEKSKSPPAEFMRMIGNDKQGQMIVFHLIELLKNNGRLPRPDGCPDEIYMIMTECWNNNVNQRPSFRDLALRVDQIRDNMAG
Assay: Jak2 inhibition assay (Omnia kinase assay)
Type: biochemical
Settings: read-out: Jak2 Enzyme (% inhibition at 1000 nM), Table 1; 1000 nM test compound
METRIC_NAME: inhibition at 1 µM (%)

INSERT INTO measurements (smiles_string, metric_name, measure_unit, quantitative_result) VALUES
  ('O=C(NC[C@@H](O)CO)c1cnn2ccc(N3CCC[C@@H]3c3cc(F)ccc3C(F)(F)F)nc12', 'inhibition at 1 µM', '%', 33.1),
  ('CNC(=O)c1cnn2ccc(N3CCC[C@@H]3c3cc(F)cnc3OC)nc12', 'inhibition at 1 µM', '%', 33.8),
  ('COCCOc1ccc(F)cc1[C@H]1CCCN1c1ccn2ncc(C(N)=O)c2n1', 'inhibition at 1 µM', '%', 33.1);

P = C[C@H](NC(=O)c1cnn2ccc(N3[C@@H](c4cncc(F)c4)CC[C@@]3(C)CO)nc12)C(F)(F)F
Q = C[C@@H](NC(=O)c1cnn2ccc(N3CCC[C@@H]3c3cncc(F)c3)nc12)C1CC1
R = O=C(O)CC1CCN(C(=O)c2cnn3ccc(N4CCC[C@@H]4c4cc(F)ccc4F)nc23)CC1
Given 3 molecules, produce a descending ranking by inhibition at 1 µM. Output the labels ranked as instructed. Q, P, R

a = O=C(NC[C@H](O)CO)c1cnn2ccc(N3CCC[C@@H]3c3cc(F)ccc3F)nc12
b = Cc1ncc(F)cc1[C@H]1CCCN1c1ccn2ncc(C(=O)NC[C@@H](C)O)c2n1
Which of the two gives a bigger number for inhibition at 1 µM: a or b ? Use the label to indicate which entry you chose. a
(a: 13.2%, b: 4.6%)
